tested on: BDF1 mice, P388 leukemia ip, median survival T/C; test: NCI In Vivo Anticancer Drug Screen. Data for tumor model P388 Leukemia (intraperitoneal) in B6D2F1 (BDF1) mice; details: endpoint: median survival time; dose: 200.0 mg/kg/injection; schedule: Q04DX003 (ip); vehicle: saline sonified; higher = longer survival
Toxic doses and inconclusive results are not listed.
propertyLabel: T/C

{"columns": ["compound", "reading"],
 "data": [
  ["COc1ccc(OC)c(NC(=O)C2CC2)c1", "113 % of control"],
  ["CC1(C)N=C(N)N=C(N)N1NC(=O)c1cccc(Cl)c1", "109 % of control"],
  ["COC(=O)C12CCc3cc(OC)ccc3C1=CC(=O)C2 (stereo not drawn)", "95 % of control"],
  ["CC1B(O)Nc2nc(=S)[nH]c(N)c21 (stereo not drawn)", "100 % of control"],
  ["COc1ccc2c(c1)CCC(=O)O2", "95 % of control"],
  ["CCCCCCCCCCCCCCCCNc1cccc2ccccc12", "104 % of control"],
  ["COc1ccc2c(c1)CCC(CC(C)=O)C2=O (stereo not drawn)", "104 % of control"],
  ["COc1cc(/C=N/OCc2cc3c(cc2Cl)OCO3)cc(OC)c1OC", "90 % of control"],
  ["Ic1ncnc2c1ncn2C1CCCCO1 (stereo not drawn)", "91 % of control"],
  ["O=Cc1ccc(C=O)c(Cl)c1", "100 % of control"],
  ["COc1cc2c(cc1I)-c1c(cc(OC)c(OC)c1OC)CC[C@@H]2NC(C)=O", "108 % of control"],
  ["O=C(O)CCCCCCCC(=O)c1ccccc1", "95 % of control"],
  ["Nc1nnc(N)s1", "100 % of control"]
]}

---

system: BDF1 mice, P388 leukemia ip, median survival T/C; experiment: NCI In Vivo Anticancer Drug Screen. Data for tumor model P388 Leukemia (intraperitoneal) in B6D2F1 (BDF1) mice; details: endpoint: median survival time; dose: 6.25 mg/kg/injection; schedule: Q04DX003 (ip); vehicle: saline with Tween-80; higher = longer survival
Toxic doses and inconclusive results are not listed.

{"columns": ["compound", "measuredOn", "T/C"],
 "data": [
  ["CC(C)CC(CC(C)C)NCC(C)OC(=O)c1ccc(N)cc1 (centres undefined)", "BDF1 mice, P388 leukemia ip, median survival T/C", "107 % of control"],
  ["O=NN(CCCl)C(=O)NC1CCC(=O)NC1=O (centres undefined)", "BDF1 mice, P388 leukemia ip, median survival T/C", "272 % of control"],
  ["O=c1c2cccc3cccc(c32)c2nc3ccccc3n12", "BDF1 mice, P388 leukemia ip, median survival T/C", "87 % of control"],
  ["C/C(=N\\NC(=S)N1CCC(O)CC1)c1ccccn1", "BDF1 mice, P388 leukemia ip, median survival T/C", "104 % of control"],
  ["O=C(c1ccccc1)C(O)(CC(c1ccccc1)[P+](c1ccccc1)(c1ccccc1)c1ccccc1)c1ccccc1 (centres undefined)", "BDF1 mice, P388 leukemia ip, median survival T/C", "109 % of control"],
  ["Clc1ccc(C#Cc2ccc(Cl)cc2)cc1", "BDF1 mice, P388 leukemia ip, median survival T/C", "92 % of control"],
  ["Clc1ccc(-c2cc(=[N+]3CCCCC3)ss2)cc1", "BDF1 mice, P388 leukemia ip, median survival T/C", "92 % of control"],
  ["Cc1c(O)ccc([N+](=O)[O-])c1O", "BDF1 mice, P388 leukemia ip, median survival T/C", "104 % of control"],
  ["CC(C)(C)c1cc2c3c(c1)C(C)(C)OS3(C)OC2(C)C", "BDF1 mice, P388 leukemia ip, median survival T/C", "102 % of control"]
]}

---

system: BDF1 mice, P388 leukemia ip, median survival T/C; experiment: NCI In Vivo Anticancer Drug Screen. Data for tumor model P388 Leukemia (intraperitoneal) in B6D2F1 (BDF1) mice; conditions: endpoint: median survival time; dose: 100.0 mg/kg/injection; schedule: Q04DX003 (ip); vehicle: Klucel (hydroxypropylcellulose) (HPC)
Toxic doses and inconclusive results are not listed. How the source made its calls: active means survival T/C of 150% or more; inactive means T/C below 125% in these data. Residues, ends and D or L forms follow the SMILES beside them. *: point of attachment. Cbz = O=C(OCc1ccccc1)*; Bn = c1ccc(C*)cc1
Outcomes: True (active), False (inactive)

{"columns": ["compound", "categoryLabel"],
 "data": [
  ["CC1(C)COC(C)(C)C(=O)O1", "False"],
  ["Cc1ccc(C)c(CN(C)C)c1O", "False"],
  ["O=C(Nc1cc(Cl)ccc1Cl)c1ccccc1Cl", "False"],
  ["CC(=O)OC1CCC2(C)C(=CCC3C2CCC2(C)C(OC(=O)c4ccccc4)CCC32)C1 (configuration not stated)", "False"],
  ["CC(=O)n1ccnc1/C=C\\c1ccc([N+](=O)[O-])s1", "False"],
  ["COC(=O)C1(Br)CCC1(Br)C(=O)OC (configuration not stated)", "False"],
  ["OC1(C#CC2(O)CCCCC2)CCCCC1", "False"],
  ["CC1SC(c2ccccc2)N(c2ccccc2)C1=O (configuration not stated)", "False"],
  ["Cc1ccc(S(=O)(=O)N(C)CCC#N)cc1", "False"],
  ["CC1(C)CC(=O)CC(C)(C)N1O", "False"],
  ["COc1ccc(/C=C(/C)[N+](=O)[O-])cc1OC", "False"],
  ["O=C(/C(=C/c1ccccc1)CN1CCOCC1)c1ccccc1", "False"],
  ["CN(C)c1ccc(/C=C/c2nc3ccccc3s2)cc1", "False"],
  ["Cc1ccc(NS(=O)(=O)c2ccc(F)cc2)cc1Cl", "False"],
  ["NC(=O)Nc1cccc2ccccc12", "False"],
  ["O=NN(CCCl)C(=O)Nc1cccc(O)c1", "True"],
  ["COc1ccc(OC(=O)Nc2ccccc2OC)cc1", "False"],
  ["CSc1ccccc1C(=O)NNS(=O)(=O)c1ccc(C)cc1", "False"],
  ["C(/C=N/N(c1ccccc1)c1ccccc1)=N\\N(c1ccccc1)c1ccccc1", "False"],
  ["COc1ccccc1NC(=O)Oc1c(C(C)C)cccc1C(C)C", "False"],
  ["O=[N+]([O-])c1ccc2c(c1)Cc1cc(Br)ccc1-2", "False"],
  ["CC(O)C(c1ccccc1)S(C)(=O)=O (configuration not stated)", "False"],
  ["O=C1c2ccccc2-c2cc(-c3ccccc3)cc(-c3ccccc3)c21", "False"],
  ["BrC1C(Br)C(Br)C2OC2C1Br (configuration not stated)", "False"],
  ["Brc1c(-c2ccccc2)cc(-c2ccccc2)cc1-c1ccccc1", "False"],
  ["CCCCn1cnc2c(SC)nc(N)nc21", "False"],
  ["COc1ccc(OC)c(/C=C/C(=O)c2ccc(Cl)cc2)c1", "False"],
  ["Cc1ccccc1-n1c(C)nc2ccccc2c1=O", "False"],
  ["CC(C)OC(CCCl)c1ccccc1 (configuration not stated)", "False"],
  ["CCCCCCCC(O)CCCC (configuration not stated)", "False"],
  ["Cc1c(C#N)c2n(c1C)CCN2", "False"],
  ["O=C(O)CC(SC(c1ccccc1)(c1ccccc1)c1ccccc1)C(=O)O (configuration not stated)", "False"],
  ["BrC1C2CCC(CC2)C1Br (configuration not stated)", "False"],
  ["O=C(O)C(Cc1ccc(O)cc1)c1ccccc1 (configuration not stated)", "False"],
  ["O=C(c1ccccc1)c1cccc(Cl)c1", "False"],
  ["O=[N+]([O-])c1ccc(/C=C/C=C/c2ccc(Cl)cc2Cl)cc1", "False"],
  ["CP(c1ccccc1)c1ccccc1", "False"],
  ["CC1CCCC/C1=N/NC(N)=O (configuration not stated)", "False"],
  ["CC1C=CC(C)C(C(=O)c2ccccc2)C1C(=O)c1ccccc1 (configuration not stated)", "False"],
  ["CCCCCCCCCCCCCCC(F)C(=O)O (configuration not stated)", "False"],
  ["COC(=O)c1ccc(-c2ccccc2)cc1", "False"],
  ["CCOC(=O)N(CC)c1ccccc1", "False"],
  ["COc1ccc(C=O)c(Cl)c1OC", "False"],
  ["O=P(Cc1ccccc1)(C(O)c1ccccc1)C(O)c1ccccc1 (configuration not stated)", "False"],
  ["COc1cc(Cc2cc(OC)c(O)c(OC)c2)cc(OC)c1O", "False"],
  ["CC(C)CC(NC(=O)C1CCCN1C(=O)C(CSCc1ccccc1)NC(=O)OCc1ccccc1)C(=O)NCC(N)=O (configuration not stated) (Cbz-C(Bn)PLG-NH2; configuration not given here)", "False"],
  ["CC(=O)c1cccc(N)c1", "False"]
]}

---

system: BDF1 mice, P388 leukemia ip, median survival T/C; test: NCI In Vivo Anticancer Drug Screen. Data for tumor model P388 Leukemia (intraperitoneal) in B6D2F1 (BDF1) mice; conditions: endpoint: median survival time; dose: 100.0 mg/kg/injection; schedule: Q01DX009 (ip); vehicle: Klucel (hydroxypropylcellulose) (HPC); higher = longer survival
Inconclusive results and toxic doses are left out.
In this section we review reported T/C values for a set of molecules.

{"columns": ["chemicalSmiles", "T/C"],
 "data": [
  ["O=NN(CCCl)C(=O)Nc1c[nH]c2ccccc12", "107 % of control"],
  ["N#CCC(N)=C(C#N)C#N", "95 % of control"],
  ["Cc1ccc(S(=O)(=O)NCC(C)C)cc1", "86 % of control"],
  ["CNc1ccccc1C#N", "100 % of control"],
  ["CCC(=O)O[C@H]1CC[C@H]2[C@@H]3CC[C@H]4CC(=O)[C@H](C)C[C@]4(C)[C@H]3CC[C@]12C", "87 % of control"],
  ["COS(=O)(=O)Oc1ccc2ccccc2c1", "108 % of control"],
  ["c1ccc(CC2(Cc3ccccc3)SCCS2)cc1", "105 % of control"]
]}
